Origin of values: paper PMC8351079

assay: Solubility analysis by saturated solution method; assay type: physicochemical; settings: aqueous phase, 37 °C
measurement.type: solubility at 24 h

# molecule, recorded.measurement
measured = [
    ("C=C1CC[C@@H]2[C@](C)(CO)[C@H](O)CC[C@@]2(C)[C@@H]1C/C=C1/C(=O)OC[C@H]1O [AND, Andrographolide]", "6.39 µg/mL"),
]

* * *

experiment: Pharmacokinetic analysis in rats (AND in plasma by HPLC); conditions: male, Sprague Dawley, in vivo, iv; rat, 10 mg/kg
measurement.type: half-life

# compound, recorded.measurement
data = [
    ("C=C1CC[C@@H]2[C@](C)(CO)[C@H](O)CC[C@@]2(C)[C@@H]1C/C=C1/C(=O)OC[C@H]1O [AND, Andrographolide]", "51.5 min"),
]
